Data origin, for the record: ChEMBL document CHEMBL6109081

# experimentalTarget: Replicase polyprotein 1ab (Severe acute respiratory syndrome coronavirus 2)
# protocolDescription: Inhibition of SARS-CoV-2 RdRp in HEK-293T cells at 10 uM measured after 24 hrs relative to control
# Format: cell-based
Each entry below lists one item and its recorded inhibition value.

Consider the worked cases shown below.
1. C[C@H](N)C(=O)Nc1nc(N)ccc1/N=N/c1ccccc1 : 48.2%
2. Nc1ccc(/N=N/c2ccccc2)c(NC(=O)[C@@H](N)Cc2c[nH]c3ccccc23)n1 : 82.7%
3. Cc1cc(N)nc(N)c1/N=N/c1ccccc1 : 49.9%
4. Nc1ccc(/N=N/c2ccc(F)cc2)c(N)n1 : 64.9%

Field request: inhibition | item: CC(C)(C)OC(=O)N1CCC[C@H]1C(=O)Nc1nc(N)ccc1/N=N/c1ccccc1
88.5%

Field request: inhibition | item: Nc1cc(Br)c(/N=N/c2ccccc2)c(N)n1
41.9%
